Please provide measured Delta (micromoles fecal bile acid per day) for the entries that follow.
Test system: fecal bile acid (FBA)
Assay: Rat gavage assay (fecal bile acid increase)
Assay type: in vivo
Conditions: dose .016 mg/kg/day

Looking up "CCCCC1(CCCC)CS(=O)(=O)c2ccc(N(C)C)cc2[C@@H](c2ccc(OCCCCCN(CC)CC)cc2)[C@H]1O" , I see its Delta (micromoles fecal bile acid per day) listed as 3.8 micromoles fecal bile acid per day

The molecule "CCCCC1(CCCC)CS(=O)(=O)c2ccc(N(C)C)cc2[C@@H](c2ccc(OCCCC[n+]3cccc(O)c3)cc2)[C@H]1O.CS(=O)(=O)[O-]" showed Delta (micromoles fecal bile acid per day) equal to 22.3 micromoles fecal bile acid per day

The molecule identified as "CCCCC1(CCCC)CS(=O)(=O)c2ccc(N(C)C)cc2[C@@H](c2ccc(OCCCCCNCC(=O)O)cc2)[C@H]1O" registered its Delta (micromoles fecal bile acid per day) at 14.4 micromoles fecal bile acid per day

###

Target: human IBAT (Homo sapiens, UniProt Q12908)
Construct: expressed in transfected cells; host or cells: Baby hamster kidney (BHK) cells, clone H14
Assay: In vitro assay of IBAT-mediated uptake of [14C]-taurocholate (TC) in H14 cells
Format: cell-based
Conditions: read-out: Human TC IC50
Measured IC50 determines class: bottom: < 40 nM; middle: ≥ 40 nM and < 70 nM; top: ≥ 70 nM

Band of CCCCC1(CC)CS(=O)(=O)c2ccc(N3CCC3)cc2C(c2ccc(F)cc2)C1O (centres unmarked) ?
middle

Band of CCCCC1(CCCC)CS(=O)(=O)c2ccc(N(C)C)cc2C(c2ccc(OCCOCCOCCOc3ccc(C4c5cc(N(C)C)ccc5S(=O)(=O)CC(CCCC)(CCCC)C4O)cc3)cc2)C1O (centres unmarked) ?
top

Form field 'band' for CCCCC1(CCCC)CS(=O)(=O)c2ccc(NCC)cc2C(c2cccc(OC)c2)C1O (centres unmarked)
middle

Which class is correct for the following molecule? CCCCC1(CCCC)CS(=O)(=O)c2c(NN(C)C)cccc2C(c2ccc(F)cc2)C1O (centres unmarked)
bottom

Kindly state the category for this molecule: CCCCC1(CCCC)CS(=O)(=O)c2ccc(O)cc2C(c2ccc(N(C)C)cc2)C1O (centres unmarked)
top

Class for CCCCC1(CCCC)CS(=O)(=O)c2ccc(N(C)C)cc2C(c2cccc(OCCOCCOCC[N+](CC)(CC)CCN(C)C(=O)c3ccccc3)c2)C1O (centres unmarked) ?
bottom

Sort into band: CCCCC1(CCCC)CS(=O)(=O)c2ccc(N(C)C)cc2C(c2ccc(OCCCCCCCCCC[N+](CC)(CC)CC)cc2)C1O (centres unmarked)
bottom

For CCCCC1(CCCC)CS(=O)(=O)c2ccc(N(C)C)cc2C(c2cccc(OCCN(CC)CC)c2)C1O (centres unmarked) , which IC50 bin applies?
middle

Each molecule maps to one class by IC50. Which class for CCCCC1(CCCC)CS(=O)(=O)c2ccc(N(C)C)cc2C(c2cccc(OCCOCCOCC[n+]3ccc(C4CCC(C)CC4)cc3)c2)C1O (centres unmarked) ?
bottom

Kindly identify the class of CCCCC1(CCCC)CS(=O)(=O)c2ccc(OC)cc2C(c2cc[n+]([O-])cc2)C1O (centres unmarked) .
top

# classify by IC50 band: CCCCC1(CCCC)CS(=O)(=O)c2ccc(N(C)C)cc2C(c2cccc(OCCOCCOCC[N+](CC)(CC)CC(OCC)OCC)c2)C1O (centres unmarked)
bottom

Which class holds CCCCC1(CCCC)CS(=O)(=O)c2ccc(N(C)C)cc2C(c2ccc3cc(OC)ccc3c2)C1O (centres unmarked) ?
top

Lab note: sort CCCCC1(CCCC)CS(=O)(=O)c2c(OC)cccc2C(c2cccc(OC)c2)C1O (centres unmarked) into the matching IC50 band.
bottom

###

Provide the recorded pIC50 for the entries that follow.
Biological target: human IBAT (Homo sapiens, UniProt Q12908)
Construct: expressed in transfected cells; host or cells: Baby hamster kidney (BHK) cells, clone H14
Experiment: In vitro assay of IBAT-mediated uptake of [14C]-taurocholate (TC) in H14 cells
Type: cell-based
Details: read-out: Human TC IC50
In simple prose, pIC50 is minus the logarithm base ten of a concentration in moles per litre.

The molecule listed as CCCCC1(CCCC)CS(=O)(=O)c2ccc(N(C)C)cc2C(c2cccc(OCCCCC[N+](CC)(CC)CC)c2)C1O (stereo not drawn) shows pIC50 equal to 8.70

Lab book: pIC50 of CCCCC1(CCCC)CS(=O)(=O)c2ccc(N(C)C)cc2C(c2ccc(OCCC[n+]3ccccc3CCCO)c(F)c2)C1O (stereo not drawn) noted as 7.77

The value of pIC50 measured for the molecule CCCCC1(CCCC)CS(=O)(=O)c2ccc(N(C)C)cc2C(c2ccc3cc(O)ccc3c2)C1O (stereo not drawn) turned out to be 7.77

Reported pIC50 for CCCCC1(CCCC)CS(=O)(=O)c2ccc(NC)cc2C(c2cccc(OCCOCCOCC[n+]3cc4ccccc4cn3)c2)C1O (stereo not drawn) was 8.40

Measured pIC50 of CCCCC1(CCCC)CS(=O)(=O)c2ccc(N(C)C)cc2C(c2cccc(OCCOCCOCC[n+]3cc4ccccc4cc3C)c2)C1O (stereo not drawn) : 8.52

Memo: CCCCC1(CCCC)CS(=O)(=O)c2ccc(N(C)C)cc2C(c2cccc(OS(=O)(=O)C(F)(F)F)c2)C1O (stereo not drawn) , reported pIC50: 6.72

Per the record, CCCCC1(CCCC)CS(=O)(=O)c2ccc(N(C)C)cc2C(c2ccc(OC)c(OC)c2)C1O (stereo not drawn) has pIC50 of 7.68

The molecule identified as CCCCN(C)c1ccc2c(c1)C(c1ccc(F)cc1)C(O)C(CCCC)(CCCC)CS2(=O)=O (stereo not drawn) registered its pIC50 at 6.66

Recorded result, CCCCC1(CCCC)CS(=O)(=O)c2ccc(OC)cc2C(c2ccncc2)C1O (stereo not drawn) [Example 1158] , pIC50: 7.22

Field pIC50 (entry CCCCC1(CCCC)CS(=O)(=O)c2ccc(N(C)C)cc2C(c2cccc(CO)c2)C1O (stereo not drawn) ) reads 8.35

Summary for this molecule, CCCCC1(CCCC)CS(=O)(=O)c2ccc(N(C)C)cc2C(c2ccc(OCCCCCCI)cc2)C1O (stereo not drawn) : pIC50 is 7.26

Form field pIC50, entry CCCCC1(CCCC)CS(=O)(=O)c2ccc(N(C)C)cc2C(c2ccc(OC)c(C[N+](C)(C)C)c2)C1O (stereo not drawn) : 6.52

# pIC50 of CCCCC1(CCCC)CS(=O)(=O)c2ccc(N(C)C)cc2C(c2ccsc2)C1O (stereo not drawn) = 8.30

Documented pIC50 of CCCCC1(CCCC)CS(=O)(=O)c2ccc([N+](C)(C)C)cc2C(c2cccc(O)c2)C1O (stereo not drawn) : 6.96

Given item CCCCC1(CCCC)CS(=O)(=O)c2c(NC)cccc2C(c2ccc(F)cc2)C1O (stereo not drawn) , the value recorded as its pIC50 is 6.60

###

For each entry below, report its IC50 value.
Molecular target: human IBAT (Homo sapiens, UniProt Q12908)
Construct: expressed in transfected cells; host or cells: Baby hamster kidney (BHK) cells, clone H14
Sequence (Q12908 1-348): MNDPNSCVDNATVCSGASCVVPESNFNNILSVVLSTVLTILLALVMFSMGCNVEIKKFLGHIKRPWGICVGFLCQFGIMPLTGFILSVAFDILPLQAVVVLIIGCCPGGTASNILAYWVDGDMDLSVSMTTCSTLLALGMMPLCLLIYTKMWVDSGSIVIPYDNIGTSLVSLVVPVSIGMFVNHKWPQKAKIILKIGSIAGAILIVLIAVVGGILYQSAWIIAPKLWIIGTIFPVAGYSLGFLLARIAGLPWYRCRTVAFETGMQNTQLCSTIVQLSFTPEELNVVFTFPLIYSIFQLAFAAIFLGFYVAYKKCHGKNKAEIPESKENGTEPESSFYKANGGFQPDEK
Assay: In vitro assay of IBAT-mediated uptake of [14C]-taurocholate (TC) in H14 cells
Type: cell-based
Conditions: In Vitro Taurocholate Uptake, Table 10; read-out: Human TC IC50
Only the number, expressed in nM, is required.

Form: compound = CCCCC1(CCCC)CS(=O)(=O)c2ccc(N(C)C)cc2[C@@H](c2ccc(OCCCCCN(CC(=O)O)CC(=O)O)cc2)[C@H]1O [Example 1415] ; IC50 = 2

For reference, reported IC50 for CCCCC1(CCCC)CS(=O)(=O)c2ccc(N(C)C)cc2[C@@H](c2ccc(OCCC[N+]34CCN(CC3)CC4)cc2)[C@H]1O [Example 1406] stands at 4

response.value for CCCCC1(CCCC)CS(=O)(=O)c2ccc(N(C)C)cc2[C@@H](c2ccc(OCc3cccc(CCC(=O)O)n3)cc2)[C@H]1O [Example 1430] (field: IC50) = 3

For CCCCC1(CCCC)CS(=O)(=O)c2ccc(N(C)C)cc2[C@@H](c2ccc(OCCCC[N+](CC)(CC)CC)cc2)[C@H]1O.CS(=O)(=O)[O-] [Example 1410] the compound record lists IC50 as 2
